Values were extracted from PubChem BioAssay AID2060511.

- Tested on: 422866-222-R5-J1-PDC spheroids with HUVEC/MSC, viability
- experiment: Anticancer human tumor 422866-222-R5-J1-PDC patient-derived pancreatic adenocarcinoma cell line growth inhibition [GQUAD]
- conditionNotes: second compound 3.16 µM; first compound 1 µM; stronger effect = lower value
experimentalReadout: viability, T/C (%)
Expressed in %, but write only the number.

Item CCCS(=O)(=O)Nc1ccc(F)c(C(=O)c2c[nH]c3ncc(-c4ccc(Cl)cc4)cc23)c1F + CN(C)c1ccc(Nc2c3ccc(NC(=O)CCN4CCCC4)cc3nc3cc(NC(=O)CCN4CCCC4)ccc23)cc1 has what recorded viability, T/C? 157

Item Nc1ccn(C2OC(CO)C(O)C2(F)F)c(=O)n1 (stereo not drawn) + CN(C)c1ccc(Nc2c3ccc(NC(=O)CCN4CCCC4)cc3nc3cc(NC(=O)CCN4CCCC4)ccc23)cc1 has what recorded viability, T/C? 35

Item C#Cc1c(F)ccc2cc(O)cc(-c3ncc4c(N5CC6CCC(C5)N6)nc(OCC56CCCN5CC(F)C6)nc4c3F)c12 (stereo not drawn) + CN(C)c1ccc(Nc2c3ccc(NC(=O)CCN4CCCC4)cc3nc3cc(NC(=O)CCN4CCCC4)ccc23)cc1 has what recorded viability, T/C? 49.5

###

- Tested on: 422866-222-R5-J1-PDC spheroids with HUVEC/MSC, viability
- experiment: Anticancer human tumor 422866-222-R5-J1-PDC cell line growth inhibition [GQUAD];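 further: spheroids exposed to compounds for seven days before reading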;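 on viability, T/C: percent viability relative to DMSO vehicle control taken as 100%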
- conditionNotes: second compound 0.1 µM; first compound 0.1 µM; stronger effect = lower value
Please use the following viability, T/C ranges when assigning a class: low interval: < 70%; middle interval: ≥ 70% and < 90%; high interval: ≥ 90%

Tag the class for CC(C)n1c(=O)n(C)c2cnc3cc(F)c(-c4ccc(OCCCN5CCCCC5)nc4)cc3c21 + CN(C)c1ccc(Nc2c3ccc(NC(=O)CCN4CCCC4)cc3nc3cc(NC(=O)CCN4CCCC4)ccc23)cc1 middle interval

Tag the class for COc1cccc2c1C(=O)c1c(O)c3c(c(O)c1C2=O)CC(O)(C(=O)CO)CC3OC1CC(N)C(O)C(C)O1 (stereo not given) + CN(C)c1ccc(Nc2c3ccc(NC(=O)CCN4CCCC4)cc3nc3cc(NC(=O)CCN4CCCC4)ccc23)cc1 middle interval

Tag the class for O=C(NO)c1cnc(N2CCN(S(=O)(=O)c3ccc4ccccc4c3)CC2)nc1 + CN(C)c1ccc(Nc2c3ccc(NC(=O)CCN4CCCC4)cc3nc3cc(NC(=O)CCN4CCCC4)ccc23)cc1 high interval

Tag the class for CC(C)n1c(=O)n(C)c2cnc3cc(F)c(-c4ccc(OCCCN5CCCCC5)nc4)cc3c21 + Cc1[nH]c2ccc(F)cc2c1-c1nc2c3cccnc3c3ncccc3c2[nH]1 high interval

Tag the class for C=CC(=O)N1CCN(c2nc(=O)n(-c3c(C)ccnc3C(C)C)c3nc(-c4c(O)cccc4F)c(F)cc23)C(C)C1 (stereo not given) + CN(C)c1ccc(Nc2c3ccc(NC(=O)CCN4CCCC4)cc3nc3cc(NC(=O)CCN4CCCC4)ccc23)cc1 low interval

Tag the class for CC1COCCN1c1cc(-c2ccnn2C)c2ccnc(-c3ccn[nH]3)c2n1 (stereo not given) + CN(C)c1ccc(Nc2c3ccc(NC(=O)CCN4CCCC4)cc3nc3cc(NC(=O)CCN4CCCC4)ccc23)cc1 low interval

Tag the class for COc1cc(C2c3cc4c(cc3C(OC3OC5COC(C)OC5C(O)C3O)C3COC(=O)C23)OCO4)cc(OC)c1O (stereo not given) + CN(C)c1ccc(Nc2c3ccc(NC(=O)CCN4CCCC4)cc3nc3cc(NC(=O)CCN4CCCC4)ccc23)cc1 middle interval

###

- Test system: 422866-222-R5-J1-PDC spheroids with HUVEC/MSC, viability
- experiment: Anticancer human tumor 422866-222-R5-J1-PDC cell line growth inhibition [GQUAD];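 further: spheroids exposed to compounds for seven days before reading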;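 on viability, T/C: percent viability relative to DMSO vehicle control taken as 100%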
- conditionNotes: second compound 0.1 µM; first compound 1 µM; stronger effect = lower value
Labelling field: enter 1 if recorded viability, T/C is less than 60%. Enter -1 if it equals or exceeds that cut-off.

Threshold test, viability, T/C < 60%: O=c1[nH]cc(F)c(=O)[nH]1 + Cc1[nH]c2ccc(F)cc2c1-c1nc2c3cccnc3c3ncccc3c2[nH]1 -1

Threshold test, viability, T/C < 60%: O=C(c1cc(Cc2n[nH]c(=O)c3ccccc23)ccc1F)N1CCN(C(=O)C2CC2)CC1 + CN(C)c1ccc(Nc2c3ccc(NC(=O)CCN4CCCC4)cc3nc3cc(NC(=O)CCN4CCCC4)ccc23)cc1 -1

Threshold test, viability, T/C < 60%: Nc1ccn(C2OC(CO)C(O)C2(F)F)c(=O)n1 (stereo unspecified) + Cc1[nH]c2ccc(F)cc2c1-c1nc2c3cccnc3c3ncccc3c2[nH]1 1

Threshold test, viability, T/C < 60%: C#Cc1c(F)ccc2cc(O)cc(-c3ncc4c(N5CC6CCC(C5)N6)nc(OCC56CCCN5CC(F)C6)nc4c3F)c12 (stereo unspecified) + Cc1cnc(CNC(=O)c2c(=O)c3ccc(N4CCCN(C)CC4)nc3n3c2sc2ccccc23)cn1 1

Threshold test, viability, T/C < 60%: CCCS(=O)(=O)Nc1ccc(F)c(C(=O)c2c[nH]c3ncc(-c4ccc(Cl)cc4)cc23)c1F + Cc1[nH]c2ccc(F)cc2c1-c1nc2c3cccnc3c3ncccc3c2[nH]1 1

Threshold test, viability, T/C < 60%: CC(C)n1c(=O)n(C)c2cnc3cc(F)c(-c4ccc(OCCCN5CCCCC5)nc4)cc3c21 + Cc1[nH]c2ccc(F)cc2c1-c1nc2c3cccnc3c3ncccc3c2[nH]1 -1

Threshold test, viability, T/C < 60%: CC(C)n1c(=O)n(C)c2cnc3cc(F)c(-c4ccc(OCCCN5CCCCC5)nc4)cc3c21 + Cc1cnc(CNC(=O)c2c(=O)c3ccc(N4CCCN(C)CC4)nc3n3c2sc2ccccc23)cn1 -1

Threshold test, viability, T/C < 60%: O=C(NO)c1cnc(N2CCN(S(=O)(=O)c3ccc4ccccc4c3)CC2)nc1 + Cc1cnc(CNC(=O)c2c(=O)c3ccc(N4CCCN(C)CC4)nc3n3c2sc2ccccc23)cn1 1

Threshold test, viability, T/C < 60%: CC(C)(O)C1CCC(Nc2ccc3ncc(-c4cccc(C(F)(F)F)c4)n3n2)CC1 (stereo unspecified) + Cc1[nH]c2ccc(F)cc2c1-c1nc2c3cccnc3c3ncccc3c2[nH]1 1

Threshold test, viability, T/C < 60%: CCCS(=O)(=O)Nc1ccc(F)c(C(=O)c2c[nH]c3ncc(-c4ccc(Cl)cc4)cc23)c1F + Cc1cnc(CNC(=O)c2c(=O)c3ccc(N4CCCN(C)CC4)nc3n3c2sc2ccccc23)cn1 -1

Threshold test, viability, T/C < 60%: CC(C)n1c(=O)n(C)c2cnc3cc(F)c(-c4ccc(OCCCN5CCCCC5)nc4)cc3c21 + CN(C)c1ccc(Nc2c3ccc(NC(=O)CCN4CCCC4)cc3nc3cc(NC(=O)CCN4CCCC4)ccc23)cc1 -1

Threshold test, viability, T/C < 60%: O=c1[nH]cc(F)c(=O)[nH]1 + Cc1cnc(CNC(=O)c2c(=O)c3ccc(N4CCCN(C)CC4)nc3n3c2sc2ccccc23)cn1 -1

Threshold test, viability, T/C < 60%: CC1COCCN1c1cc(-c2ccnn2C)c2ccnc(-c3ccn[nH]3)c2n1 (stereo unspecified) + Cc1[nH]c2ccc(F)cc2c1-c1nc2c3cccnc3c3ncccc3c2[nH]1 1

Threshold test, viability, T/C < 60%: Cc1cccc(N(C)C(=O)C2C(O)CCN2c2nc(C)cc(C(F)(F)F)c2C#N)c1 (stereo unspecified) + Cc1[nH]c2ccc(F)cc2c1-c1nc2c3cccnc3c3ncccc3c2[nH]1 -1

Threshold test, viability, T/C < 60%: C#Cc1c(F)ccc2cc(O)cc(-c3ncc4c(N5CC6CCC(C5)N6)nc(OCC56CCCN5CC(F)C6)nc4c3F)c12 (stereo unspecified) + CN(C)c1ccc(Nc2c3ccc(NC(=O)CCN4CCCC4)cc3nc3cc(NC(=O)CCN4CCCC4)ccc23)cc1 1

###

- Test system: 422866-222-R5-J1-PDC spheroids with HUVEC/MSC, viability
- experiment: Anticancer human tumor 422866-222-R5-J1-PDC cell line growth inhibition [GQUAD];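 further: spheroids exposed to compounds for seven days before reading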
- conditionNotes: curve of first compound; second compound 0.0316 µM
- Description: DNA G-quadruplex Stabilizer Agents in Combinations in Complex Spheroids A high-throughput screen of multi-cell type tumor spheroids was designed to identify active combinations of DNA G-quadruplex stabilizer agents and targeted small molecules. […] Compounds. […] If the clinical Cmax for an agent had not been determined, the highest concentration tested was 10 microM. […]
I'd be grateful if you could share measured IC50 for these entries.

Request: IC50, test system 422866-222-R5-J1-PDC spheroids with HUVEC/MSC, viability, entry COc1ccc([C@@H](O)c2cc(-c3ncnc4cc(N5CCOCC5)ccc34)c(F)cc2Cl)nn1 + Cc1[nH]c2ccc(F)cc2c1-c1nc2c3cccnc3c3ncccc3c2[nH]1 4200 nM

Request: IC50, test system 422866-222-R5-J1-PDC spheroids with HUVEC/MSC, viability, entry C=CC(=O)N1CCN(c2nc(=O)n(-c3c(C)ccnc3C(C)C)c3nc(-c4c(O)cccc4F)c(F)cc23)C(C)C1 (stereo not given) + CN(C)c1ccc(Nc2c3ccc(NC(=O)CCN4CCCC4)cc3nc3cc(NC(=O)CCN4CCCC4)ccc23)cc1 < 31.6 nM

Request: IC50, test system 422866-222-R5-J1-PDC spheroids with HUVEC/MSC, viability, entry CC(C)(O)C1CCC(Nc2ccc3ncc(-c4cccc(C(F)(F)F)c4)n3n2)CC1 (stereo not given) + Cc1[nH]c2ccc(F)cc2c1-c1nc2c3cccnc3c3ncccc3c2[nH]1 1110 nM

Request: IC50, test system 422866-222-R5-J1-PDC spheroids with HUVEC/MSC, viability, entry O=C(c1cc(Cc2n[nH]c(=O)c3ccccc23)ccc1F)N1CCN(C(=O)C2CC2)CC1 + CN(C)c1ccc(Nc2c3ccc(NC(=O)CCN4CCCC4)cc3nc3cc(NC(=O)CCN4CCCC4)ccc23)cc1 > 10000 nM

Request: IC50, test system 422866-222-R5-J1-PDC spheroids with HUVEC/MSC, viability, entry CCc1c2c(nc3ccc(O)cc13)-c1cc3c(c(=O)n1C2)COC(=O)[C@]3(O)CC + CN(C)c1ccc(Nc2c3ccc(NC(=O)CCN4CCCC4)cc3nc3cc(NC(=O)CCN4CCCC4)ccc23)cc1 6.8 nM
